Reported T½ values follow for various binders
EXPERIMENTAL_SYSTEM: T1, hGCGR-hFc (human)
T1 construct: also called REGN316
T1 sequence (chain, as listed by the source limits assumed): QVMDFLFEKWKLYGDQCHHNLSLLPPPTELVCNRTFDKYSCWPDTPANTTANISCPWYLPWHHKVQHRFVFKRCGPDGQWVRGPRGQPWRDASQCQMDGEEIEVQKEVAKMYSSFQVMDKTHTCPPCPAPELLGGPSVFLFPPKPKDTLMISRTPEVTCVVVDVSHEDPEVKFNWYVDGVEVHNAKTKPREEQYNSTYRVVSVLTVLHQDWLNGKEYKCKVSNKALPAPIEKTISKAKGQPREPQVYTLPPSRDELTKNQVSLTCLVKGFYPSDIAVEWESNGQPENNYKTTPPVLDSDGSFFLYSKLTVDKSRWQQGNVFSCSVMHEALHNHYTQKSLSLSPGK
ASSAY_SUMMARY: SPR Biacore T100, 25C, mAb captured, antigen flowed
State the answer as a number, implicitly in h.

The following binders have reported results that may help.
H4H1765N (antibody, V domains shown, Anti-GCGR antibody from hybridoma; the controls are called isotype-matched hIgG4) VH: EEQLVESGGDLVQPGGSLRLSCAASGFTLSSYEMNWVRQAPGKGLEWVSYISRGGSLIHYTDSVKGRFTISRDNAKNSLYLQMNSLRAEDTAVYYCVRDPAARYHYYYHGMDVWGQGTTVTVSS VL: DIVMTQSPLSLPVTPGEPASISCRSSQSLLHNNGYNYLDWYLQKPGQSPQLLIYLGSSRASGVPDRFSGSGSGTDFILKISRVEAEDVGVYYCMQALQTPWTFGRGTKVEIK = 38.9
H4H1327P (antibody, V domains shown, also called anti-GCGR (hIgG4) antibody designated H4H1327P) VH: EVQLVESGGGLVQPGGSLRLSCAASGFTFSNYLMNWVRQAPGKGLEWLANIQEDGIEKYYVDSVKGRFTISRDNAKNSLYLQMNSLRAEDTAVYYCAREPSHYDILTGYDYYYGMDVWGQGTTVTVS VL: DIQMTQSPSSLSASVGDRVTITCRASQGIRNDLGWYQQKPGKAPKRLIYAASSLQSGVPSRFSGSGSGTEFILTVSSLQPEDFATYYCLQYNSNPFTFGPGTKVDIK = 4.7
H4H1331P (antibody, V domains shown, Fully human anti-GCGR antibody; the controls are called isotype-matched hIgG4) VH: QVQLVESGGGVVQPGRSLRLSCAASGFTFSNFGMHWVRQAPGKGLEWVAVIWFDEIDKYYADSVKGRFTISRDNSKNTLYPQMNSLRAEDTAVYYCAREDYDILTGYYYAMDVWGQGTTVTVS VL: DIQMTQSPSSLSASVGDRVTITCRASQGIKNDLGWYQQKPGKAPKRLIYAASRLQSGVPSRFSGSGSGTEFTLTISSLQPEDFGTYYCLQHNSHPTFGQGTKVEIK = 12.5
H4H1321P (antibody, V domains shown, Fully human anti-GCGR antibody; the controls are called isotype-matched hIgG4) VH: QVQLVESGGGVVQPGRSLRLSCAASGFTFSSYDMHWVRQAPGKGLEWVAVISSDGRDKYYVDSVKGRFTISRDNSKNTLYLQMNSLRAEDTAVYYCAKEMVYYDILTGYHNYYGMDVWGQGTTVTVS VL: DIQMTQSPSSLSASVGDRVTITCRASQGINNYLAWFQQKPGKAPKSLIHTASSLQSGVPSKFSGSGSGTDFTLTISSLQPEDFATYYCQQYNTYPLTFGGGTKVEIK = 0.683
H4H1339P (antibody, V domains shown, Fully human anti-GCGR antibody; the controls are called isotype-matched hIgG4) VH: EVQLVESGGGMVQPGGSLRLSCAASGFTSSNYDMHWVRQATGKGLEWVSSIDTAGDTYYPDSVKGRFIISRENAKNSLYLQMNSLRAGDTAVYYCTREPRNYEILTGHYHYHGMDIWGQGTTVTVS VL: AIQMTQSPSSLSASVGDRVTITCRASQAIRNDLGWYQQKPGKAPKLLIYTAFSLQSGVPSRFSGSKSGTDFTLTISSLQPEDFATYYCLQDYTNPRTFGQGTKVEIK = 3.1

// below: T½ requested for another binder
Field T½ (entry H4H1328P (antibody, V domains shown, Fully human anti-GCGR antibody; the controls are called isotype-matched hIgG4) VH: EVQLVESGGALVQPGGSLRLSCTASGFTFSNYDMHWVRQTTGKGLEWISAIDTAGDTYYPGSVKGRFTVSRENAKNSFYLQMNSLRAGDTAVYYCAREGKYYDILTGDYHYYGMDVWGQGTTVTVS VL: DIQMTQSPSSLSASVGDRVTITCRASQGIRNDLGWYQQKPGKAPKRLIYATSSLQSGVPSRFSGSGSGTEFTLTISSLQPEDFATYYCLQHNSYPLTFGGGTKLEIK ) reads 0.85
